- Assay Explanation: Quantitative High-Throughput drug screen in 47 multiple myeloma cell lines against the NCATS MIPE library collection: PE2_PLB cell viability assay (AID 1919869); further: nearly all actives have a fitted effect of over 35% in size
- Measurement Parameters: PE2_PLB myeloma cells viability, ATP luminescence, 48 h; series mostly up to 45.8 µM
- Description: PI: Beverly A. Mock Ph.D. Laboratory of Cancer Biology and Genetics, Center for Cancer Research, National Cancer Institute, National Institute of Health, Bethesda, Maryland […] 5; Detector; 425V; Luminescence; Viewlux PerkinElmer. […] 1. […] Briefly, the corresponding myeloma cell lines were screened in 1,536-well plates with 500 cells, 5-uL per well for inhibition of cell viability (assessed by measuring ATP levels with CellTiterGlo). […]
Records with an inconclusive call do not appear. Active and inactive are the calls of the source. The call rests on the fitted dose curve; in most records, active means well fitted cell-killing curve with a large enough effect; inconclusive means small, poorly fitted or top-dose-only effect, or effect the other way; inactive means no such curve, though single readings can be large or run the other way.
Outcomes: y for active, n for inactive

Compound	Class Label
O=C(Nc1cccc(Cl)c1)Nc1ncc(CCNc2ncnc3ccsc23)s1	y
CN1N=C(N)c2cn([C@@H]3O[C@H](COP(=O)(O)O)[C@@H](O)[C@@H]3O)c3ncnc1c23	y
Nc1ncnc2c1c(-c1cccc(OCc3ccccc3)c1)cn2C1CC(CN2CCC2)C1 (stereo not given)	y
COc1c(C)cnc(Cn2cnc3c(Cl)nc(N)nc32)c1C	y
NCc1c[nH]c(=S)n1[C@H]1CCc2c(F)cc(F)cc2C1	y
CC(NCCc1ccc(O)cc1)C(O)c1ccc(O)cc1 (stereo not given)	n
Cc1ccc(NC(=O)Nc2cc(C(F)(F)F)ccc2F)cc1Nc1ccc2c(c1)NC(=O)C2=Cc1ccc[nH]1	y
N#Cc1ccc(Oc2ccc3c(c2)COB3O)cc1	y
CCNC(=O)[C@H]1O[C@@H](n2cnc3c(N)nc(NCCc4ccc(CCC(=O)O)cc4)nc32)[C@H](O)[C@H]1O	y
CCCCCCCCCCCCCC(=O)N[C@H](CO)[C@H](O)c1ccc([N+](=O)[O-])cc1	y

###

Quick reference: activity, negative = inhibition of the listed items.
- Assay Explanation: qHTS profiling for inhibitors of Plasmodium falciparum proliferation (AID 504749);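 further: 0% = DMSO vehicle and full inhibition = artemisinin control; nearly all actives have a fitted effect of over 60% in size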
- Measurement Parameters: P. falciparum in erythrocytes, SYBR Green DNA, 72 h; at 28.7 µM (top of the series); parasite line B
Results filed as inconclusive are left out.
Readout: activity, negative = inhibition (%)

Compound	Readout	Unit Symbol	Readout Value
CS(=O)(=O)c1ccc(C2=C(c3ccccc3)C(=O)OC2)cc1	activity, negative = inhibition	%	18.5
CN1CCN2c3ncccc3Cc3ccccc3C2C1 (centres undefined)	activity, negative = inhibition	%	7.38
Cc1cc2nc3c(=O)[nH]c(=O)nc-3n(CC(O)C(O)C(O)CO)c2cc1C (centres undefined)	activity, negative = inhibition	%	-10.6
N#CC(c1ccc(Cl)cc1)c1c(Cl)cc(-n2ncc(=O)[nH]c2=O)cc1Cl (centres undefined)	activity, negative = inhibition	%	-1.8
COc1cc2c(cc1OC)CC(=O)N(CCCN(C)C[C@H]1Cc3cc(OC)c(OC)cc31)CC2	activity, negative = inhibition	%	-3.25
N#Cc1c(N(CC(=O)O)CC(=O)O)sc(C(=O)O)c1CC(=O)O	activity, negative = inhibition	%	0.836
O=C(O)c1nc(=O)[nH]c(=O)[nH]1	activity, negative = inhibition	%	-28.2
COc1ccnc(CS(=O)c2nc3ccc(OC(F)F)cc3[nH]2)c1OC (centres undefined)	activity, negative = inhibition	%	-10.6
O=C1C(CCC(O)c2ccc(F)cc2)C(c2ccc(O)cc2)N1c1ccc(F)cc1 (centres undefined)	activity, negative = inhibition	%	8.1

Each recorded value in this set is attributed to PubChem BioAssay (NCATS).
